Below, each of the compounds is paired with its reported Mean Revertant Colony Counts TA-100 S9- value.
test system: Salmonella typhimurium TA100; details: 25 ug/Well; without S9
Would you mind answering with just the numeric figure?

{"columns": ["entry.smiles", "Mean Revertant Colony Counts TA-100 S9-"],
 "data": [
  ["CC(C)(C)c1cc(C(=O)Nc2ccc(C(=O)O)cc2Cl)c(O)c(C(C)(C)C)c1", 24.0],
  ["CC(C)(C)c1ccc(O)c(C(=O)Nc2cc(C(=O)O)ccc2Cl)c1", 24.0],
  ["CC(C)(C)c1ccc(O)c(C(=O)Nc2ccc(C(=O)O)cc2Cl)c1", 28.0]
]}

Returns the measured Mean Revertant Colony Counts TA-100 S9- for the input compound. Input: CC(C)(C)c1ccc(O)c(C(=O)Nc2ccc(C(=O)O)cc2C(F)(F)F)c1
25.0
